Tested on: A549
Test: Antiproliferative activity against human A549 cells measured after 7 days by Celltiter-glo assay
Assay type: functional, cell-based
Settings: A549, 168 h
parameter-measured: pIC50
Interpret pIC50 as the negative base-10 log of the concentration measured in mol/L.

Here is how some compounds turned out for pIC50.
• Nc1cc(C(F)(F)F)c(-c2cc(N3CCOCC3)nc(N3CCOCC3)n2)cn1 = 5.77
• O=C(c1cc(Cc2n[nH]c(=O)c3ccccc23)ccc1F)N1CCN(C(=O)C2CC2)CC1 = 5.27

Suppose we examine the compound "Nc1cc(C(F)(F)F)c(-c2nc3c(c(N4CCOCC4)n2)CCN(C(=O)c2cc(Cc4n[nH]c(=O)c5ccccc45)ccc2F)C3)cn1" ; what pIC50 value has been reported? 6.27

====

Target: Poly [ADP-ribose] polymerase 2 (Homo sapiens)
Sequence (Q9UGN5 whole entry): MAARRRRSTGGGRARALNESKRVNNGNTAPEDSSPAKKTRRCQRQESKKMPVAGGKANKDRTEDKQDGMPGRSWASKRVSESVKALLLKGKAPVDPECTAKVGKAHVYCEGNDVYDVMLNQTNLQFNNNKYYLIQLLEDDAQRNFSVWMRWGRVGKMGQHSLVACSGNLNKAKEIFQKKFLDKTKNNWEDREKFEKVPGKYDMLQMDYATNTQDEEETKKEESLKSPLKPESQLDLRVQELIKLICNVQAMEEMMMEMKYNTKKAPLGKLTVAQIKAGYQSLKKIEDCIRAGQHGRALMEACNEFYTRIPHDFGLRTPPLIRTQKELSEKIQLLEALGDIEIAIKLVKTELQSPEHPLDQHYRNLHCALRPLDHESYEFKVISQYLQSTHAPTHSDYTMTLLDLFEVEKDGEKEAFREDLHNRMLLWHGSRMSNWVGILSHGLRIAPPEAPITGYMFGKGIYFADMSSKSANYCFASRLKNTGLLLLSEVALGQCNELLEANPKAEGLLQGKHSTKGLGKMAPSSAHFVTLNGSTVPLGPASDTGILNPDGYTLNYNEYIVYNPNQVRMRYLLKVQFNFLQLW
Assay: Inhibition of recombinant human PARP2 using histone as substrate after 1 hr in presence of biotinylated NAD+ by ELISA
parameter-measured: IC50 (nM)
Give the value in nM but do not write nM after it.

Suppose we examine the compound "Nc1cc(C(F)(F)F)c(-c2nc3c(c(N4CCOCC4)n2)CCN(C(=O)c2cc(Cc4n[nH]c(=O)c5ccccc45)ccc2F)C3)cn1" ; what IC50 value has been reported? 3.63

====

Test system: CAKI-1
Assay: Antiproliferative activity against human CAKI-1 cells measured after 7 days by Celltiter-glo assay
Format: functional, cell-based
Details: CAKI-1, 168 h
Recorded IC50 values for a group of compounds are listed next.

Here is how some compounds turned out for IC50.
* Nc1cc(C(F)(F)F)c(-c2cc(N3CCOCC3)nc(N3CCOCC3)n2)cn1 | 2750 nM
* Nc1cc(C(F)(F)F)c(-c2nc3c(c(N4CCOCC4)n2)CCN(C(=O)c2cc(Cc4n[nH]c(=O)c5ccccc45)ccc2F)C3)cn1 | 955 nM

// next entry
Suppose we examine the compound "O=C(c1cc(Cc2n[nH]c(=O)c3ccccc23)ccc1F)N1CCN(C(=O)C2CC2)CC1" ; what IC50 value has been reported? 7080 nM

====

Target: Phosphatidylinositol 4,5-bisphosphate 3-kinase catalytic subunit alpha isoform (Homo sapiens)
Sequence (P42336 whole entry, canonical isoform): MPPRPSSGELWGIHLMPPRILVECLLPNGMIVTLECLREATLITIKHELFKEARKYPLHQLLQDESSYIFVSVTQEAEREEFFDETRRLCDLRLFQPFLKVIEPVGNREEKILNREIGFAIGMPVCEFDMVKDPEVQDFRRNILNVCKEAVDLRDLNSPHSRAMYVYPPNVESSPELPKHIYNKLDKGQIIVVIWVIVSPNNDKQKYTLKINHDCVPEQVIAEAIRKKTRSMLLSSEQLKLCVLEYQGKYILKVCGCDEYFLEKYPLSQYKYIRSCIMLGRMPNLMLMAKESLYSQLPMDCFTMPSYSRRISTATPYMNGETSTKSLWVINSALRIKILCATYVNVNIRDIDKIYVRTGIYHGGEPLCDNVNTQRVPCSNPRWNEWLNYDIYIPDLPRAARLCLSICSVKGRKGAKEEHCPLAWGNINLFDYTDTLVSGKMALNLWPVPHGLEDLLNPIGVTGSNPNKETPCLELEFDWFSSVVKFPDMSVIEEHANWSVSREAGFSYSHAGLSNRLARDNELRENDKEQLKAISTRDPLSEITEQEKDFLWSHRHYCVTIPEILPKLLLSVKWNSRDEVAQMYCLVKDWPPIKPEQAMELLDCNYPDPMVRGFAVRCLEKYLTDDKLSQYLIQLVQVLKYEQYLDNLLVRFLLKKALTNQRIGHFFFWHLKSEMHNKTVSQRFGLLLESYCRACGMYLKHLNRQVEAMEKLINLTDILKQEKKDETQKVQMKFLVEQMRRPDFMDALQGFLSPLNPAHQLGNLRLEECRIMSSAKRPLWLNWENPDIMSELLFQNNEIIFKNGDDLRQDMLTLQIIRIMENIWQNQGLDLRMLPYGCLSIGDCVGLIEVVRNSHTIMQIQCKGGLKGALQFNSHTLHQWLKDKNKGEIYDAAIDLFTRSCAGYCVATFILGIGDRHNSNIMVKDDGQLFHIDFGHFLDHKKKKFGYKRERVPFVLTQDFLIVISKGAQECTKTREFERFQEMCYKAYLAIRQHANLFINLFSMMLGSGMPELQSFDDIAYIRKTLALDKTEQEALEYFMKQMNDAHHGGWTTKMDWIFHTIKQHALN
Assay: Inhibition of PI3Kalpha (unknown origin) using PIP2 as substrate measured after 1 hr by ADP-glo plus luminescence assay
Recorded IC50 values for a group of compounds are listed next.
Give the value in nM but do not write nM after it.

Here is how some compounds turned out for IC50.
* Nc1ncc(-c2nc(N3CCOCC3)nc(N3CCN(C(=O)c4cc(Cc5n[nH]c(=O)c6ccccc56)ccc4F)CC3)n2)cc1C(F)(F)F | 1200
* Nc1ccc(-c2nc(N3CCOCC3)nc(N3CCN(C(=O)c4cc(Cc5n[nH]c(=O)c6ccccc56)ccc4F)CC3)n2)cc1 | 331
* O=C(c1cc(Cc2n[nH]c(=O)c3ccccc23)ccc1F)N1CCN(c2nc(-c3ccc4[nH]ccc4c3)nc(N3CCOCC3)n2)CC1 | 692
* Nc1ccc(-c2nc(N3CCOCC3)nc(N3CCN(C(=O)c4cc(Cc5n[nH]c(=O)c6ccccc56)ccc4F)CC3)n2)cn1 | 132
* Nc1ccc(-c2nc(N3CCOCC3)nc(N3CCN(C(=O)c4cc(Cc5n[nH]c(=O)c6ccccc56)ccc4F)CC3)n2)c(F)c1 | 708

// next entry
Suppose we examine the compound "Nc1ncc(-c2nc(N3CCOCC3)nc(N3CCN(C(=O)c4cc(Cc5n[nH]c(=O)c6ccccc56)ccc4F)CC3)n2)cn1" ; what IC50 value has been reported? 91.2
